Quick reference for pKd among some binders
measured_on: SARS-CoV-2 spike protein receptor binding domain (RBD2) (SARS-CoV-2, UniProt P0DTC2 319-537)
test_protocol: flow cytometry, yeast-displayed scFv, titration of biotinylated antigen
pKd: −log10 of the molar value.
quantity_kind: pKd

1. D04 scFv (scFv) scFv: SYVLTQPPSVSVAPGKTARITCGGNNIGWKSVHWYQQKPGQAPVLVVYNDNDRPSGVPERFSGSNSGNTATLTISRVVAGDEADYYCQVWDSSSDHVLFGGGTKLTVLSGGSTITSYNVYYTKLSSSGTQVQLVQSGAEVKKPGSSVKVSCKASGGTFSSYAISWVRQAPGQGLEWMGGIIPIFGTANYAQKFQGRVTITADESTSTAYMELSSLRSEDTAVYYCARASGRWLQFWHYYGMDVWGQGTTVTVS    7.48
2. H01 scFv (scFv, also called H1) scFv: QPGLTQPPSVSLAPGQTARITCGGNNIGSKSVHWYQQKPGQAPVLVVYDDSDRPSGIPERFSGSNAGNTATLTISRVEAGDEADYYCQVWDSRSDQYVFGTRTKLTVLSGGSTITSYNVYYTKLSSSGAQVTLKESGPVLVKPTETLTLTCTVSGFSLSNARMGVSWIRQPPGKALEWLAHIFSNGEKSYSTSLKSRLTISKDTSKSQVVLTMTNMDPVDTATYYCARTLDYYDSSGYLVGGAFDIWGQGTMVTVSS    7.18
3. S01 scFv (scFv, also called 501) scFv: EIVMTQSPSSLSASVGDSVTITCQASQDISNYLNWYQQKPGKAPKLLIYDASNLETGVPSRFSGGGSGTDFTLTITSLQPEDIATYYCQQYDNFPPTFGPGTKVDIKSGGSTITSYNVYYTKLSSSDTQVQLVESGGGLVKPGGSLRLSCAASGFTVGSNYMSWVRQAPGKGLEWVSVIYSGGSTYYADSVKGRFTISRDNSKNTLYLQMNSLRAEDTAVYYCARGSSGAWYFDLWGRGTLVTVSS    7.36
4. F07 scFv (scFv) scFv: SYVLTQPPSVSVAPGQTARITCGGNNIGSKSVHWYQQKPGQAPVLVVYDDSDRPSGIPERFSGSNSGNTATLIISRVEAGDEADYYCQVWDSSSVHYVFGTGTKLTVLSGGSTITSYNVYYTKLSSSGTQVQLVQSGAEVKKPGSSVRVSCKVSGYTFTGYYMHWVRQAPGQGLEWMGIINPSGGSTSYAQKFQGRVTMTRDTSTSTVYMELSSLRSEDTAVYYCARVRVGASDAFDIWGQGTMVTVSS    7.17
5. E01 scFv (scFv, also called E1) scFv: SYELTQPPSVSVAPGETARITCGGDNIGRRHVHWYQQKPGQAPVLVIYDDSDRPSGIPDRFSGSNSGNTATLTIGRVEAGDEADYYCQVWGSSNDPHVFGTGTKLTVLSGGSTITSNNVYYTKLSSSGTQVQLQQWGAGLLKPSETLSLKCAVYGGSFSGYYWGWIRQSTGKGLEWIGEINRSGSTNYNPSLKSRVTISVDTSKNQFSLKLSSVTAADTAVYYCARGGARYYYGSGSYRSTPRPYYFDYWGQGTLVTVSS    7.86

Origin of values: patent US12018066
